test: MRT(0 to infinity) in Sprague-Dawley rat plasma at 10 mg/kg, iv measured up to 48 hrs by LC-MS/MS analysis; type: ADME, organism-based
measured-attribute: MRT inf (h)

[
  {
    "smi": "O=C(Cc1cccc(Oc2ccccc2)c1)Nc1nnc(N[C@@H]2CCN(c3cccnn3)C2)s1",
    "measured-attribute": "MRT inf",
    "observed-value": 1.59
  }
]

----------
target: Voltage-gated inwardly rectifying potassium channel KCNH2 (Homo sapiens); assay: Inhibition of human ERG expressed in HEK293 cells at -80 mV holding potential by whole cell patch-clamp assay
Sequence (Q12809 whole entry): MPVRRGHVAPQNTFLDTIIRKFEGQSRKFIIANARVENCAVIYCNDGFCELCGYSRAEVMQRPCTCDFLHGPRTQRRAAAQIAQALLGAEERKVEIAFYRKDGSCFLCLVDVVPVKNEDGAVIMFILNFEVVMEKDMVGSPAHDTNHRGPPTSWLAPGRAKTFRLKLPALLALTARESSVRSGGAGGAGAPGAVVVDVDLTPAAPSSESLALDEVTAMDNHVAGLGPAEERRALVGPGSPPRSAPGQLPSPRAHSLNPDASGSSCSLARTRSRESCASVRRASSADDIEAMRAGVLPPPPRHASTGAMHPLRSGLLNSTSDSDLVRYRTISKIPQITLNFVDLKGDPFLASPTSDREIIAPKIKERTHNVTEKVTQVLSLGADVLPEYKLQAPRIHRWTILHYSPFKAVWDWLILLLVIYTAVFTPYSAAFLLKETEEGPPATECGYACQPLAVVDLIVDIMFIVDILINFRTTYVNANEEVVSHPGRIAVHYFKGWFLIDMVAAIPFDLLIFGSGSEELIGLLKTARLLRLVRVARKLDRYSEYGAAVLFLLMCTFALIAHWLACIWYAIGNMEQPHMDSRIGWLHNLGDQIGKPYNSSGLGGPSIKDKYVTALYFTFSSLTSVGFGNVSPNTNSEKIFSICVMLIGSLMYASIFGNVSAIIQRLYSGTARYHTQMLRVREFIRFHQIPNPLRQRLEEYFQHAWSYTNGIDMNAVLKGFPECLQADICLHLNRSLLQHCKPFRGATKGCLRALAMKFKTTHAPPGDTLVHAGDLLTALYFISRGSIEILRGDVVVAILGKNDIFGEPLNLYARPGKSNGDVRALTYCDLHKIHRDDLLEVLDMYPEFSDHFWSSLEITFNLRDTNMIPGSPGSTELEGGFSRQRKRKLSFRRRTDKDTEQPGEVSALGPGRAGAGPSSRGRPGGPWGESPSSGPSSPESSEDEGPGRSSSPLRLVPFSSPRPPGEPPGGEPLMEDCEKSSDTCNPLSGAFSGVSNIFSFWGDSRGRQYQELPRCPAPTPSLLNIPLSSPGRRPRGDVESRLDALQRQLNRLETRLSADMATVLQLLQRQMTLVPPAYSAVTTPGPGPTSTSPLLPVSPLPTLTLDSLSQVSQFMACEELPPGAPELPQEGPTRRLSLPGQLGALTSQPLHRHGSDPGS
pIC50: −log10 of the molar value.

[
  {
    "smi": "O=C(Cc1cccc(Oc2ccccc2)c1)Nc1nnc(N[C@@H]2CCN(c3cccnn3)C2)s1",
    "pIC50": 5.12
  }
]
